- System: HEP2 cells
- ASSAY METHOD TEXT: cells
- Type: cell-based
- CONDITIONS: Homo sapiens, HEp-2, 96 h, read-out: IC50 ± SD, concentration toxic to 50% of non-infected HEP2 cells
pIC50: −log10 of the molar value.
PROPERTY NAME: pIC50

MOLECULE	PROPERTY NAME	OBSERVED RESULT
C=C(C)[C@@H]1CC[C@]2(C(=O)OCc3cn(-c4cccc([N+](=O)[O-])c4)nn3)CC[C@]3(C)[C@H](CC[C@@H]4[C@@]5(C)CC[C@H](OC(C)=O)C(C)(C)[C@@H]5CC[C@]43C)[C@@H]12	pIC50	4.62
C#CCOC(=O)[C@]12CC[C@@H](C(=C)C)[C@@H]1[C@H]1CC[C@@H]3[C@@]4(C)CC[C@H](OC(C)=O)C(C)(C)[C@@H]4CC[C@@]3(C)[C@]1(C)CC2	pIC50	4.74
C=C(C)[C@@H]1CC[C@]2(C(=O)O)CC[C@]3(C)[C@H](CC[C@@H]4[C@@]5(C)CC[C@H](O)C(C)(C)[C@@H]5CC[C@]43C)[C@@H]12 [compound 1, betulinic acid, reference compound]	pIC50	4.55
CC(=O)OC1CCC2(C)C(CCC3(C)C2CC=C2C4C(C)C(C)CCC4(C(=O)OCc4cn(-c5cccc([N+](=O)[O-])c5)nn4)CCC23C)C1(C)C (stereo not drawn)	pIC50	4.70
C[C@H]1[C@H](C)CC[C@]2(C(=O)O)CC[C@]3(C)C(=CC[C@@H]4[C@@]5(C)CC[C@H](O)C(C)(C)[C@@H]5CC[C@]43C)[C@H]12 [compound 2, ursolic acid, reference compound]	pIC50	4.57
C=C(C)[C@@H]1CC[C@]2(C(=O)O)CC[C@]3(C)[C@H](CC[C@@H]4[C@@]5(C)CC[C@H](OC(C)=O)C(C)(C)[C@@H]5CC[C@]43C)[C@@H]12	pIC50	4.94
